STUDY_SYSTEM: Sterol O-acyltransferase 1 (Rattus norvegicus)
Sequence (O70536 whole entry): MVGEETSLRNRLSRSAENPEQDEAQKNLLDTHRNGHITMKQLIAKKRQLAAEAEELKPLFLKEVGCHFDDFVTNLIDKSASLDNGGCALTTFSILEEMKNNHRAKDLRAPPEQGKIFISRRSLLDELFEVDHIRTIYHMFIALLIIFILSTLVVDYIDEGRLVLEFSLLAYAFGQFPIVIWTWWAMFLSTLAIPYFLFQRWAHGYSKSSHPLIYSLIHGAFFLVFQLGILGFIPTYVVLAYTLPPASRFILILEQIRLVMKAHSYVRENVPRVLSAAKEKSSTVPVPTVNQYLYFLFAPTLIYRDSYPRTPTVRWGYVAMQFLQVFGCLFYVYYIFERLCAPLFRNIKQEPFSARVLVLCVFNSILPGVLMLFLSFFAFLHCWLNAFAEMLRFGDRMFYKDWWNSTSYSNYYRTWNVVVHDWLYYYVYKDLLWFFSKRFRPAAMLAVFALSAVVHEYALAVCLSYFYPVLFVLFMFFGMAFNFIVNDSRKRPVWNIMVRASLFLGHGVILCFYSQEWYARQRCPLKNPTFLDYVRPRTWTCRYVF
PROPERTY_LABEL: IC50 (µM)

Look over these answered cases.
INSERT INTO results (smiles_data, result_value) VALUES
  ('C[C@H]1[C@H](C)CC[C@]2(C(=O)O)CC[C@]3(C)C(=CC[C@@H]4[C@@]5(C)CC[C@H](O)[C@@](C)(CO)[C@@H]5CC[C@]43C)[C@H]12', 64),
  ('C=C1[C@@H](O)[C@H](O)C[C@]2(C)[C@H]3C=C[C@]45OC(=O)[C@@]6(CC[C@@H](C)[C@H](C)[C@H]64)CC[C@@]5(C)[C@]3(C)CC[C@@H]12', 154),
  ('C=C(C)[C@@H]1CC[C@]2(CO)CC[C@]3(C)[C@H](CC[C@@H]4[C@@]5(C)CC[C@H](O)[C@](C)(CO)[C@@H]5CC[C@]43C)[C@@H]12', 328);

(I) C[C@H]1[C@H](C)CC[C@]2(C(=O)O)CC[C@]3(COC(=O)/C=C/c4ccc(O)cc4)C(=CC[C@@H]4[C@@]5(C)CC[C@H](O)C(C)(C)[C@@H]5CC[C@]43C)[C@H]12
(II) C=C1[C@@H](O)[C@H](O)C[C@]2(C)[C@H]3CC=C4[C@@H]5[C@@H](C)[C@H](C)CC[C@]5(C(=O)O)CC[C@@]4(C)[C@]3(C)CC[C@@H]12
Lookup: Name the one with the greater IC50 value, either I or II as given. Please reply using the label of the selected record.
Found: I
